The entries below are paired with their reported pKd.
- Tested On: T1, human LRRC33-proTGFβ1 complex (human, UniProt Q86YC3 19-650; P01137 30-390)
- T1 construct: also called hLRRC33-proTGFβ1; hLRRC33
- T1 sequence (Q86YC3 other isoform, or with tags, fused parts or gaps limits assumed, chain 1 of 2): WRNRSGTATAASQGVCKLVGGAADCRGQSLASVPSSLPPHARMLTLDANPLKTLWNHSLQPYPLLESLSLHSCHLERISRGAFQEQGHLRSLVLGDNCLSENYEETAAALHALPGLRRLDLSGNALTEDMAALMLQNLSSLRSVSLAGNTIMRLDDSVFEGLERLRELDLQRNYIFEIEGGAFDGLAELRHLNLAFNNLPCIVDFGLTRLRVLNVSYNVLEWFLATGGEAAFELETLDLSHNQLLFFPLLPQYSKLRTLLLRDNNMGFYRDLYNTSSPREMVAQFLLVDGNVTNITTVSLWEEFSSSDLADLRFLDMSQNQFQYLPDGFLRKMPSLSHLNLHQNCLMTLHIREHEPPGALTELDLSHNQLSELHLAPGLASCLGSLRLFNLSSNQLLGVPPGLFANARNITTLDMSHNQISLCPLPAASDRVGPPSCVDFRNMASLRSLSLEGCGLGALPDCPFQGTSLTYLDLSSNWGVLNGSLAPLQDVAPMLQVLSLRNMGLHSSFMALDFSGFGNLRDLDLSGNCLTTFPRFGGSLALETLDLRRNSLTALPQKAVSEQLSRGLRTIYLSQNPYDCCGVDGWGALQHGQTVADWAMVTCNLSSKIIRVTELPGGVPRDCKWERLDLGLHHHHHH
- T1 sequence (P01137 30-390 limits assumed, chain 2 of 2): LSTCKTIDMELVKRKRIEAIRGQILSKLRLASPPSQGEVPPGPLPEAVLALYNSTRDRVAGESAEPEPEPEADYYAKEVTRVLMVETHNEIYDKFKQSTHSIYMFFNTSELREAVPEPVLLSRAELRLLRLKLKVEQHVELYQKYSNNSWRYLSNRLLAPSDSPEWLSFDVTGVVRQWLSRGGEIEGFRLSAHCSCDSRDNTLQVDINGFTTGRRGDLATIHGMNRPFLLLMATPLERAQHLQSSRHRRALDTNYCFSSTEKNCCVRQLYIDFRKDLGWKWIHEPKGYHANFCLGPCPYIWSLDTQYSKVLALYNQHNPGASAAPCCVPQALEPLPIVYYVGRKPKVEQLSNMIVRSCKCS
- Protocol Details: BLI (Octet)
// scale note: pKd = -log10(conc_M); give the bare number

Worked set:
Give its pKd value. Item: Ab15 (antibody, V domains shown) VH: EVQLVESGGGVVQPGRSLRLSCAASGFTFSDYAMVWVRQAPGKGLEWVSAISGSGFTTYYADSVKGRFTISRDNSKNTLYLQMNSLRAEDTAVYYCARVSSGHWDFDYWGQGTLVTVSS VL: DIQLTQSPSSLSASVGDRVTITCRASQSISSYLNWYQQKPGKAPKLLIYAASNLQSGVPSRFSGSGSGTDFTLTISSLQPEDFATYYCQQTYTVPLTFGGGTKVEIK
9.15

What do we get for Ab20 (antibody, IgG4, V domains shown) VH: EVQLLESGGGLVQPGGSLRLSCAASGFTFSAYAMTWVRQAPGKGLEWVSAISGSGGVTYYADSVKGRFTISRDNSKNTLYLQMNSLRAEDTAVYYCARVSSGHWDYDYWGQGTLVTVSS VL: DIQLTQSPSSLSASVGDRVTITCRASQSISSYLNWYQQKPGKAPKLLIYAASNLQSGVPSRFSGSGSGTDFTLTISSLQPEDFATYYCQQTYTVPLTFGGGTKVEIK ?
9.26

Here is another binder to look at.
Give its pKd value. Item: Ab27 (antibody, V domains shown) VH: EVQLVESGGGLVQPGGSLRLSCAASGFTFSFYAMNWVRQAPGKGLEWVSYISPDASTIYYADSVKGRFTISRDNAKNSLYLQMNSLRAEDTAVYYCARGVLDYGDMLDPWGQGTLVTVSS VL: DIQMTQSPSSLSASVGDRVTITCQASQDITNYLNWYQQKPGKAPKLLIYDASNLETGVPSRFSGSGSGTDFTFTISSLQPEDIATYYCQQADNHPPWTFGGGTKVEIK
9.52
